inhibition at 30 µM values by entry
target: UniProt:P03146
Sequence (P03146 whole entry): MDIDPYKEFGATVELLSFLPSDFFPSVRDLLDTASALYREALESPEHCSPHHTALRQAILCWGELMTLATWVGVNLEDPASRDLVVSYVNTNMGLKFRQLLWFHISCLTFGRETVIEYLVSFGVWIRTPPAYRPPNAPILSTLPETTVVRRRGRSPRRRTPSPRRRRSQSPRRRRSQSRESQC
experimentalProtocol: Protein inhibition (capsid assembly inhibition), Table 1
Format: biochemical
conditionParameters: @30 μM; read-out: Protein % inhibition rate (@30 μM)
Form entry: value (%) — number only.

The molecule identified as O=C(Nc1ccc(F)c(Cl)c1)N(Cc1nnc2n1CCCCC2)c1ccon1 registered its inhibition at 30 µM at 77.6

The molecule identified as COc1ccc(N(Cc2nnc3n2CCCCC3)C(=O)N(C)c2ccc(F)c(Cl)c2)cc1 registered its inhibition at 30 µM at 5

The molecule identified as CNc1ccc(N(Cc2nnc3n2CCCCC3)C(=O)Nc2ccc(F)c(Cl)c2)cc1 registered its inhibition at 30 µM at 92

The molecule identified as O=C(Nc1ccc(F)c(Cl)c1)N(Cc1nnc2n1CCOCC2)c1ccc2c(c1)OCO2 registered its inhibition at 30 µM at 80

The molecule identified as COc1ccc(N(Cc2nnc3n2CCN(C(=O)OCc2ccccc2)CC3)C(=O)Nc2ccc(F)c(Cl)c2)cc1 registered its inhibition at 30 µM at -1

New cases:
The molecule identified as COc1ccc(N(Cc2nnc(C3CCCC3)n2C)C(=O)Nc2ccc(F)c(Cl)c2)cc1 registered its inhibition at 30 µM at -4

The molecule identified as COc1ccc(N(Cc2nnc(C)n2C2CC2)C(=O)Nc2ccc(F)c(Cl)c2)cc1 registered its inhibition at 30 µM at 84.1

The molecule identified as O=C(Nc1ccc(F)c(Cl)c1)N(Cc1nnc2n1CCCCC2)c1ccc2ncsc2c1 registered its inhibition at 30 µM at 80.9

The molecule identified as Cc1cccc(NC(=O)N(Cc2nnc3n2CCCCC3)c2ccc3c(c2)OCO3)n1 registered its inhibition at 30 µM at 3

The molecule identified as COc1ccc(N(Cc2nnc(C)n2-c2ccccc2)C(=O)Nc2ccc(F)c(Cl)c2)cc1 registered its inhibition at 30 µM at -2

The molecule identified as O=C(Nc1ccc(F)c(Cl)c1)N(Cc1nnc2n1CCCCC2)c1ncco1 registered its inhibition at 30 µM at 100

The molecule identified as O=C(Nc1ccc(F)c(Cl)c1)N(Cc1nnc2n1CCCCC2)c1ccc(C(F)(F)F)cc1 registered its inhibition at 30 µM at 89

The molecule identified as O=C(NC1CCCC1)N(Cc1nnc2n1CCCCC2)c1ccc2c(c1)OCO2 registered its inhibition at 30 µM at 4

The molecule identified as O=C(Nc1ccccc1Cl)N(Cc1nnc2n1CCCCC2)c1ccc2c(c1)OCO2 registered its inhibition at 30 µM at 9

The molecule identified as O=C(Nc1ccc(F)c(Cl)c1)N(Cc1nnc2n1CCCCC2)c1ccc2cc[nH]c2c1 registered its inhibition at 30 µM at 85

The molecule identified as Cc1cccc(NC(=O)N(Cc2nnc3n2CCCCC3)c2ccc3c(c2)OCO3)c1 registered its inhibition at 30 µM at 72
